Measured % inhibition 10 µg/ml antibody concentration (BeWo cells, CSF-1 induced growth) values are reported for all entries that follow.
measured-on: human wildtype CSF-1R (full-length) (human, UniProt P07333 20-972)
run-description: cell-based or functional assay
Kindly answer with a numeric value in %, unit omitted.

Example entries begin here.
binder	endpoint-value
Mab 2F11 (antibody, V domains shown) VH: QVQLKESGPGLVAPSQSLSITCTVSGFSLTTYDISWIRQSPGKGLEWLGVIWTDGGTNYNSPFMSRLSIRKDNSKSQVFLKMNRLQTDDTAIYYCVRDQRLYFDVWGAGTTVTVSS VL: NIVMTQSPKSMSMSVGERVTLNCKASEDVNTYVSWYQQQPEQSPKLLIYGASNRYTGVPDRFTGGGSTTDFTLTISSVQAEDLADYFCGQSFSYPTFGTGTKLEIK	70
Mab 2H7 (antibody, V domains shown) VH: QVQLKESGPGLVAPSKSLSITCTVSGSSLDSFDISWIRQPPGKGLEWLGVIWTGGGTNYNSGFMSRLRISKDNSKSQVFLKMSSLQSDDTAIYYCVRDPRLYFDVWGAGTTVTVSS VL: NIVMTQSPKSMSMSVGERVTLSCKASEDVVTYVSWYQQKPEQSPKLLIYGASNRYTGVPDRFTGSGSATDFTLTISSIQAEDLADYYCGQTFSYPTFGTGTKLEIK	103
Mab 1G10 (antibody, V domains shown) VH: RVQLKESGPGLVAPSQSLSITCTVSGFSLTSYDISWIRQSPGKGLEWLGVIWSGGGTNYNSPFMSRLRISKDDSRSQVFLKVNRLQTDDTAIYYCVRDLRLYFDVWGAGTTVTVSS VL: KIVMTQSPKSMSVSVGERVSLSCKASEDVGTYVSWYQQKPEQSPKLLIYGSSNRYTGVPDRFTGSGSATDFTLTISSVQAEDLADYSCGQSFTYPTFGTGTKLEIK	99

Let's switch to this binder now.
Give its % inhibition 10 µg/ml antibody concentration (BeWo cells, CSF-1 induced growth) value. Item: Mab 2E10 (antibody, V domains shown) VH: QVQLKESGPGLVAPSKSLSITCTVSGSSLDSFDISWIRQSPGKGLEWLGVIWTGGGTNYNSGFMSRLRITKDNSKSQVLLKMNSLQSDDTAIYYCVRDPRLYFDVWGAGTTVTVSS VL: NIVMTQSPKSMSMSVGERVTLSCKASEDVVTYVSWYQQKPDQSPKLLIYGASNRYTGVPDRFTGSGSATDFTLTISSVQAEDLADYYCGQTFSYPTFGTGTKLEIK 102
